- TESTED SYSTEM: GalNAc(b1-3)Gal
- EXPERIMENT: glycan array binding signal (z-score within array); higher = stronger binding
- EXPERIMENTAL SETUP: glycan notation: IUPAC condensed, linker removed
About 410 targets per protein were measured; listed, in parts, are those with the strongest signals and a random draw of the rest.
TEST READOUT: glycan array binding signal (z-score)

1) SSP1 (Sclerotinia sclerotiorum), XP_001584968 (protein) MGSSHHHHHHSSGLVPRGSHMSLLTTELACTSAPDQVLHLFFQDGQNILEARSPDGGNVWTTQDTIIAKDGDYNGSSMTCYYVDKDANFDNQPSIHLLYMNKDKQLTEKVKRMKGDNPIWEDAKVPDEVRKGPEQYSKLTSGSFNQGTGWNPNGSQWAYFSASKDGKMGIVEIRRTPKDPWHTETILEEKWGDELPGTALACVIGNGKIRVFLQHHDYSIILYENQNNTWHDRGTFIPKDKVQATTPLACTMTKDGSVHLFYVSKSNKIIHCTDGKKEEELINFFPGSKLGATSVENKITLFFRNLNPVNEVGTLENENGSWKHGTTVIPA | 2.2
2) Epa7 (Candida glabrata), Q6DTM6_CANGB (protein) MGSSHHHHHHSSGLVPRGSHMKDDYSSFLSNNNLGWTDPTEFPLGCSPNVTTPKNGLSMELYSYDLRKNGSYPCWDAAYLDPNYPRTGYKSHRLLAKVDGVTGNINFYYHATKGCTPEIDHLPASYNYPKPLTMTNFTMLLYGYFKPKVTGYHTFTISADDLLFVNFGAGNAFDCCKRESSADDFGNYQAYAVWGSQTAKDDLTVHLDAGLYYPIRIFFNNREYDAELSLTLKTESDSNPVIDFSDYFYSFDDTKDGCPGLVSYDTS | -0.245

This collection of values is drawn from the supplement of paper PMC8728848.
